B1: KLHDC10 (parent)
chain: PSLLELAWEKLLAAFPNLANLSRT

Variants of: B1
experiment_notes: protein stability index of a GFP-peptide fusion (GPS, HEK-293T) (PSI 1-6); higher = more stable;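 also: lentivirally expressed fusions sorted by FACS into six bins by GFP to DsRed ratio, PSI derived from sequencing read proportions per bin multiplied by bin number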
study_conditions: c terminus: a fixed tail appended
property_name: protein stability index
One number for each entry.

Would you mind giving protein stability index for every variant in the list below?
1. N20R
2. L12Q
3. F15I
4. L12Y
5. P1F
6. E5M
7. L3C
8. L21V

1: 1.89; 2: 2.23; 3: 1.39; 4: 1.76; 5: 2.52; 6: 2.04; 7: 1.85; 8: 2.35

For every listed record, write down its protein stability index.
1. T24H
2. P16I
3. A14K
4. L18M

1. 2.56
2. 1.63
3. 2.1
4. 1.84

Items follow; give protein stability index for each.
1. L12R
2. A19M
3. A7L
4. E5I
5. A19P
6. F15D
7. E5T
8. S2K

[1.88, 2.1, 2.29, 1.8, 2.29, 2.3, 2.31, 2.17]

Cited source: the supplement of paper PMC10567573
